# maps each entry to its log10(IC50)
biological target: Steryl-sulfatase (Homo sapiens, UniProt P08842); experiment: Inhibition of human steroid sulfatase compared to EMATE
Sequence (P08842 whole entry): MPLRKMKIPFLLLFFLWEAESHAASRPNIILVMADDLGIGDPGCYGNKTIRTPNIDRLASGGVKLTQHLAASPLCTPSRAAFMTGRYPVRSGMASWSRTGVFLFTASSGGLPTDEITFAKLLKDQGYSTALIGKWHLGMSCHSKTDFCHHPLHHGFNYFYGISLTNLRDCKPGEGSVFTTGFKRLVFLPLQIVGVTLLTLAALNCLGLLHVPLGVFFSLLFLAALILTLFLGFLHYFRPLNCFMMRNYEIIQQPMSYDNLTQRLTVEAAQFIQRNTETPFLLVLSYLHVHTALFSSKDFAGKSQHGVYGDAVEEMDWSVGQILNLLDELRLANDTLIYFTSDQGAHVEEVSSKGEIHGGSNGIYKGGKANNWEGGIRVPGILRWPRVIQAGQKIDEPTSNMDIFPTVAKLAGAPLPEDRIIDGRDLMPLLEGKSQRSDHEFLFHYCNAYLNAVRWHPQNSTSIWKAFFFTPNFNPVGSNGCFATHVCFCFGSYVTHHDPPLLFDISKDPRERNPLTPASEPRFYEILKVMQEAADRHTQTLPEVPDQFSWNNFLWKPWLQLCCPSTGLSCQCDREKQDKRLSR
Scale: decimal log of IC50, IC50 in µM.

compound | target of assay | readout kind | observed result
COc1cccc(C(=O)c2cccc(OS(N)(=O)=O)c2)c1 | Steryl-sulfatase (Homo sapiens, UniProt P08842) | log10(IC50) | 0.85

Moving on to another compound below.
Sample COc1cccc(C(=O)c2ccc(OS(N)(=O)=O)cc2)c1 ; log10(IC50) observed: 0.72

---

target: Steryl-sulfatase (Homo sapiens, UniProt P08842)
pIC50: −log10 of the molar value.
Please note: t applies when pIC50 is 6 or greater, and f applies otherwise.

Some solved entries appear below for comparison.
compound | qualitative label
NS(=O)(=O)Oc1cccc(C(=O)c2ccccc2)c1 | f
NS(=O)(=O)Oc1ccc(C(=O)c2ccc(OS(N)(=O)=O)cc2)cc1 | t
COc1ccc(C(=O)c2cccc(OS(N)(=O)=O)c2)cc1 | f
NS(=O)(=O)Oc1cccc(C(=O)c2cccc(O)c2)c1 | f
C[C@]12CC[C@@H]3c4ccc(OS(N)(=O)=O)cc4CC[C@H]3[C@@H]1CCC2=O [EMATE] | t

Next:
Kindly determine if pIC50 recorded for NS(=O)(=O)Oc1cccc(C(=O)c2ccc(O)cc2)c1 is above or exactly 6.
f

Recorded values, source ChEMBL document CHEMBL1136026.
